Where these numbers come from: ChEMBL document CHEMBL1121581

- method.description: Lethal dose in mice after perorla administration
- Format: toxicity, organism-based
- condition.notes: mouse, in vivo, po
Documented LD50 across a set of compounds
The answer is to be given in mg/kg; state only the numeric part.

compound	measure.unit	readout.number
CCc1cc2c(s1)Nc1cc(F)ccc1N=C2N1CCN(C)CC1	mg/kg	150
CC(C)c1cc2c(s1)Nc1ccc(F)cc1N=C2N1CCN(C)CC1	mg/kg	50
CCc1cc2c(s1)Nc1ccc(F)cc1N=C2N1CCN(c2cccc(C(F)(F)F)c2)CC1	mg/kg	400
CCc1cc2c(s1)Nc1ccc(F)cc1N=C2N1CC[N+](C)([O-])CC1	mg/kg	200
CCc1cc2c(s1)Nc1cc(F)c(F)cc1N=C2N1CCN(C)CC1	mg/kg	300
CSc1ccc2c(c1)N(CCC1CCCCN1C)c1ccccc1S2 (centres undefined) [THIORIDAZINE]	mg/kg	400

Entry `Cc1cc2c(s1)Nc1ccc(F)cc1N=C2N1CCNCC1` has what LD50?
400

Try `CCc1cc2c(s1)Nc1ccc(F)cc1N=C2NCCN(C)C` next.
400

----------
Reported LD50 by item:
- method.description: Lethal dose in mice after perorla administration
- Assay type: toxicity, organism-based
- condition.notes: mouse, in vivo, po
Record the value in mg/kg, omitting the unit from your answer.

compound	measure.unit	readout.number
Cc1cc2c(s1)Nc1ccc(F)cc1N=C2N1CC[N+](C)([O-])CC1	mg/kg	200
CCc1cc2c(s1)Nc1ccc(F)cc1N=C2NCCN1CCOCC1	mg/kg	400
CCc1cc2c(s1)Nc1ccc(F)cc1N=C2NCCCO	mg/kg	400
CCc1cc2c(s1)Nc1ccccc1N=C2N1CCNCC1	mg/kg	800
CCc1cc2c(s1)Nc1ccc(F)cc1N=C2N1CCN(CCCO)CC1	mg/kg	400
CN(C)CCCN1c2ccccc2Sc2ccc(Cl)cc21 [CHLORPROMAZINE]	mg/kg	400
CCc1cc2c(s1)Nc1cc(F)cc(F)c1N=C2N1CCN(C)CC1	mg/kg	600
CN1CCN(C2=Nc3ccccc3Nc3sc(C(C)(C)C)cc32)CC1	mg/kg	400

Look up LD50 for this compound: Cc1cc2c(s1)Nc1ccc(F)cc1N=C2N1CCN(C)CC1 [FLUMEZAPINE]
200

Also, `CCc1cc2c(s1)Nc1ccc(Cl)cc1N=C2N1CCN(C)CC1` please.
50

Now the same for `CCc1cc2c(s1)Nc1ccc(F)cc1N=C2NCCCN1CCOCC1`
800

Try this compound too: `CCc1cc2c(s1)Nc1ccc(F)cc1N=C2NCCCN1CCN(C)CC1`
400

Now try `CCc1cc2c(s1)Nc1ccc(F)cc1N=C2N1CCN(CCO)CC1` .
400

Also check OCCN1CCN(CC/C=C2/c3ccccc3Sc3ccc(C(F)(F)F)cc32)CC1 [Z-FLUPENTIXOL]
300

Would you kindly repeat that for `CCc1cc2c(s1)Nc1cc(C)ccc1N=C2N1CCN(C)CC1` ?
150

What do you have for `CCc1cc2c(s1)Nc1ccc(F)cc1N=C2N1CCN(C)CC1.O=C(O)/C=C\C(=O)O` ?
200

And for `CCc1cc2c(s1)Nc1ccccc1N=C2N1CCN(CC)CC1` ?
200

Same for `CC(=O)c1cc2c(s1)Nc1ccc(F)cc1N=C2N1CCN(C)CC1`
200

Would you kindly repeat that for `CCc1cc2c(s1)Nc1ccccc1N=C2N1CCN(C)CC1` ?
150

----------
Catalogue of LD50 readings, one per entry.
- method.description: Lethal dose in mice after perorla administration
- Format: toxicity, organism-based
- condition.notes: mouse, in vivo, po

smiles.string	LD50
CCc1cc2c(s1)Nc1ccc(F)cc1N=C2N1CCOCC1	> 400 mg/kg
CCc1cc2c(s1)Nc1ccccc1N=C2N1CCN(Cc2ccccc2)CC1	> 400 mg/kg
CCc1cc2c(s1)Nc1ccc(F)cc1N=C2NCCCN(C)C	> 800 mg/kg
CCc1cc2c(s1)Nc1ccc(F)cc1N=C2N1CCN(c2ccccc2)CC1	> 400 mg/kg
Cc1csc2c1C(N1CCN(C)CC1)=Nc1cc(F)ccc1N2	> 200 mg/kg
CN1CCN(C2=Nc3cc(F)ccc3Nc3sc(-c4ccccc4)cc32)CC1	> 400 mg/kg
CCc1cc2c(s1)Nc1ccc(F)cc1N=C2NCCN1CCCC1	> 400 mg/kg
CCOC(=O)N1CCN(C2=Nc3cc(F)ccc3Nc3sc(C)cc32)CC1	> 400 mg/kg

Entry `CCc1cc2c(s1)Nc1ccc(F)cc1N=C2NCCO` has what LD50?
> 800 mg/kg

Now this one: `CCc1cc2c(s1)Nc1ccc(Cl)cc1C(N1CCN(C)CC1)=N2`
> 100 mg/kg

Further, for `CCc1cc2c(s1)Nc1ccc(F)cc1N=C2NCCN1CCN(c2ccccc2)CC1` ?
> 800 mg/kg

----------
- method.description: Lethal dose in mice after perorla administration
- Assay type: toxicity, organism-based
- condition.notes: mouse, in vivo, po
Reported LD50 values for the following molecules.

Recorded results for 5 molecules are shown here.
molecule	result
CCc1cc2c(s1)Nc1ccc(S(=O)(=O)N(C)C)cc1N=C2N1CCN(C)CC1	> 800 mg/kg
CC(O)c1cc2c(s1)Nc1ccc(F)cc1N=C2N1CCN(C)CC1 (stereo not given)	> 400 mg/kg
CN1CCN(C2=Nc3cc(F)ccc3Nc3sc4c(c32)CCCC4)CC1	> 400 mg/kg
CCc1cc2c(s1)Nc1ccc(F)cc1N=C2N1CCN(C)CC1	> 200 mg/kg
O=C(CCCN1CCC(O)(c2ccc(Cl)cc2)CC1)c1ccc(F)cc1 [HALOPERIDOL]	> 100 mg/kg

Field request: LD50 | item: `CCCCCCc1cc2c(s1)Nc1ccc(F)cc1N=C2N1CCN(C)CC1`
> 400 mg/kg

Same thing, different molecule: `CCCN1CCN(C2=Nc3cc(F)ccc3Nc3sc(CC)cc32)CC1`
> 100 mg/kg

----------
- method.description: Lethal dose in mice after perorla administration
- Format: toxicity, organism-based
- condition.notes: mouse, in vivo, po
# LD50 values compiled below

smiles.string	LD50
CCc1cc2c(s1)Nc1ccc(F)cc1N=C2N1CCN(Cc2ccc(Cl)cc2)CC1	> 400 mg/kg
OCCN1CCN(CC/C=C2\c3ccccc3Sc3ccc(C(F)(F)F)cc32)CC1	> 400 mg/kg
CCc1cc2c(s1)Nc1ccc([N+](=O)[O-])cc1N=C2N1CCN(C)CC1	> 400 mg/kg

Need LD50, item `CCc1cc2c(s1)Nc1ccc(F)cc1N=C2N1CCN(c2cccc(Cl)c2)CC1`
> 400 mg/kg

Can you handle `CCc1cc2c(s1)Nc1ccccc1N=C2N1CCN(CCO)CC1` next?
> 400 mg/kg

Another molecule to look at: `CCc1cc2c(s1)Nc1ccc(S(C)(=O)=O)cc1N=C2N1CCN(C)CC1`
> 400 mg/kg

Try this molecule too: `CCOC(=O)N1CCN(C2=Nc3cc(F)ccc3Nc3sc(CC)cc32)CC1`
> 800 mg/kg

Another molecule: `CCc1cc2c(s1)Nc1ccc(F)cc1N=C2N1CCNCC1`
> 800 mg/kg

Request: `CCc1cc2c(s1)Nc1ccc(F)cc1N=C2N1CCN(Cc2ccccc2)CC1`
> 400 mg/kg

How about `CCc1cc2c(s1)Nc1ccc(SC)cc1N=C2N1CCN(C)CC1` ?
> 200 mg/kg

Try this molecule next: `CN1CCN(C2=Nc3cc(F)ccc3Nc3sccc32)CC1`
> 200 mg/kg

Try this molecule too: `CN1CCN(C2=Nc3cc(F)ccc3Nc3sc(C(C)(C)C)cc32)CC1`
> 400 mg/kg

Same read-out for `CCCN1CCN(C2=Nc3ccccc3Nc3sc(CC)cc32)CC1` ?
> 200 mg/kg

Likewise for `CCc1cc2c(s1)Nc1ccc(F)cc1N=C2N1CCCCC1` ?
> 200 mg/kg

What do we get for `CCc1cc2c(s1)Nc1ccc(Cl)cc1N=C2N1CCNCC1` ?
> 400 mg/kg

Next molecule: `CC(=O)c1cc2c(s1)Nc1ccccc1C(N1CCN(C)CC1)=N2`
> 400 mg/kg

And then `CCOC(=O)N1CCN(C2=Nc3ccccc3Nc3sc(CC)cc32)CC1` , what is it?
> 400 mg/kg

Same again, this time with `CCc1cc2c(s1)Nc1ccccc1C(N1CCN(C)CC1)=N2`
> 200 mg/kg
